test system: PC-3; test: MTT cytotoxic assay, PC-3; format: cell-based; details: Homo sapiens, 48 h of treatment
Recorded Metric: IC50 (µM)
Answers are plain numbers, in µM.

Request: Record request: IC50 value, item `C=C(C)[C@H](CC=C(C)C)C[C@@]12C[C@@H](CC=C(C)C)C(C)(C)[C@@](CC=C(C)C)(C(=O)C(C(=O)c3ccc(O)c(O)c3)=C1O)C2=O`
Result: 12.6

Reference source: patent US9408811B2
